Reported pIC50 values for a set of molecules
- system.name: full-length recombinant human NEK7 (Homo sapiens)
- Construct: full-length recombinant human NEK7; GST (N)
- Sequence (Q8TDX7 whole entry): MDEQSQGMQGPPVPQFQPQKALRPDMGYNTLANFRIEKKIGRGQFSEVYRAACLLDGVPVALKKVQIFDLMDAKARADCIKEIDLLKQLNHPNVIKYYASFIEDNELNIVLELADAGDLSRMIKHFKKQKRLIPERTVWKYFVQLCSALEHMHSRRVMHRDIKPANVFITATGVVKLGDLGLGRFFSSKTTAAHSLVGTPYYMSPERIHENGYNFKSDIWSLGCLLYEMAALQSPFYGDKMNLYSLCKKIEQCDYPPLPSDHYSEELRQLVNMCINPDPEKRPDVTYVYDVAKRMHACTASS
- protocol.text: NEK7 enzymatic assay
- condition.info: recombinant human NEK7, casein substrate, radiolabelled ATP
pIC50: −log10 of the molar value.

// worked examples, pIC50 included
{"molecule": "CC(C)n1nc(-c2ccc(NC(=O)Nc3ccc(CN4CCN(C)CC4)c(C(F)(F)F)c3)cc2)c2c(N)ncnc21 [Example I-24]", "measured.metric": "pIC50", "value": "> 7.00"}
{"molecule": "COCCn1nc(-c2ccc(NC(=O)Nc3ccc(CN4CCN(C)CC4)c(C(F)(F)F)c3)c(F)c2)c2c(N)ncnc21 [Example I-77]", "measured.metric": "pIC50", "value": "> 7.00"}

Prompt: Returns the measured pIC50 for the input molecule. Input: CS(=O)(=O)CCN1CCN(Cc2ccc(NC(=O)Nc3ccc(-c4cn(C5CC5)c5ncnc(N)c45)cc3F)cc2C(F)(F)F)CC1 [Example I-99]
Completion: > 7.00

Prompt: # repeat for Nc1ncnc2c1c(-c1ccc(NC(=O)Nc3ccc(CN4CCCCC4)c(C(F)(F)F)c3)c(F)c1)cn2C1CC1 [Example I-95]
Completion: 5.70 to 6.30

Prompt: Param item: CNC1CCN(Cc2ccc(NC(=O)Nc3ccc(-c4cn(C5CC5)c5ncnc(N)c45)cc3F)cc2C(F)(F)F)CC1 [Example I-74]
Completion: 6.30 to 7.00

Prompt: Follow-up item: CN1CCN(Cc2ccc(NC(=O)Nc3ccc(-c4cn(C5CN(C)C5)c5ncnc(N)c45)cc3F)cc2C(F)(F)F)CC1 [Example I-104]
Completion: > 7.00

Prompt: What about this molecule? CC(=O)N1CCC(Oc2ccc(NC(=O)Nc3ccc(-c4cn(C5CC5)c5ncnc(N)c45)cc3F)cc2C(F)(F)F)CC1 [Example I-82]
Completion: 6.30 to 7.00

Prompt: Also Nc1ncnc2c1c(-c1ccc(NC(=O)Nc3ccc(CN4CCC(O)CC4)c(C(F)(F)F)c3)c(F)c1)cn2C1CC1 [Example I-96] , if possible.
Completion: 6.30 to 7.00

Prompt: Quick one: CN1CCCN(Cc2ccc(NC(=O)Nc3ccc(-c4cn(C5CC5)c5ncnc(N)c45)cc3F)cc2C(F)(F)F)CC1 [Example I-44]
Completion: > 7.00

Prompt: // same read-out, input: CN1CC2CCC1CN2Cc1ccc(NC(=O)Nc2ccc(-c3cn(C4CC4)c4ncnc(N)c34)cc2F)cc1C(F)(F)F (centres unmarked) [Example I-9]
Completion: 6.30 to 7.00

Prompt: Queued: CN(C)C1CCN(Cc2ccc(NC(=O)Nc3ccc(-c4cn(C5CC5)c5ncnc(N)c45)cc3F)cc2C(F)(F)F)C1 (centres unmarked) [Example I-45]
Completion: > 7.00

Prompt: Record: CS(=O)(=O)N1CCN(Cc2ccc(NC(=O)Nc3ccc(-c4cn(C5CC5)c5ncnc(N)c45)cc3F)cc2C(F)(F)F)CC1 [Example I-98]
Completion: 5.70 to 6.30

Prompt: Now try Nc1ncnc2c1c(-c1ccc(NC(=O)Nc3ccc(CN4CCN(CCO)CC4)c(C(F)(F)F)c3)c(F)c1)cn2C1CC1 [Example I-42] .
Completion: > 7.00

Prompt: Another molecule to look at: CN1CCC(n2cc(-c3ccc(NC(=O)Nc4ccc(CN5CCN(C)CC5)c(C(F)(F)F)c4)c(F)c3)c3c(N)ncnc32)CC1 [Example I-21]
Completion: > 7.00

Prompt: Then what about the molecule CN1CCN(Cc2ccc(NC(=O)Nc3ccc(-c4cn(C5CC5)c5ncnc(N)c45)cc3F)cc2C(F)(F)F)CC12CC2 [Example I-73] ?
Completion: 5.70 to 6.30

Prompt: What would you report for CN1CCN(Cc2ccc(NC(=O)Nc3ccc(-c4cn(C)c5ncnc(N)c45)cc3F)cc2C(F)(F)F)CC1 [Example I-18] ?
Completion: > 7.00

Prompt: Now this one: Cc1cc(NC(=O)Nc2ccc(-c3nn(C4COC4)c4ncnc(N)c34)cc2)ccc1N1CCOCC1 [Example I-23]
Completion: < 5.70

Prompt: Thanks! And CN1CCN(Cc2c(F)cc(NC(=O)Nc3ccc(-c4cn(C5CC5)c5ncnc(N)c45)cc3F)cc2C(F)(F)F)CC1 [Example I-12] ?
Completion: > 7.00

Prompt: Please answer likewise for CN1CCN(Cc2ccc(NC(=O)Nc3ccc(-c4cn(C5CCN(S(=O)(=O)C6CC6)CC5)c5ncnc(N)c45)cc3F)cc2C(F)(F)F)CC1 [Example I-102]
Completion: > 7.00

Prompt: Please answer likewise for CN1CCN(Cc2ccc(NC(=O)Nc3ccc(-c4cn(CCO)c5ncnc(N)c45)cc3F)cc2C(F)(F)F)CC1 [Example I-71]
Completion: > 7.00

Prompt: Entry to check: COCCN1CCN(Cc2ccc(NC(=O)Nc3ccc(-c4cn(C5CC5)c5ncnc(N)c45)cc3F)cc2C(F)(F)F)CC1 [Example I-43]
Completion: > 7.00

Prompt: Similarly, CN1CCN(Cc2ccc(NC(=O)Nc3ccc(-c4cn(C5CC5)c5ncnc(N)c45)cc3F)cc2C2CC2)CC1 [Example I-40] ?
Completion: 6.30 to 7.00

Prompt: Then what about the molecule CN1CCN(Cc2ccc(NC(=O)Nc3ncc(-c4cn(C5CC5)c5ncnc(N)c45)cc3F)cc2C(F)(F)F)CC1 [Example I-67] ?
Completion: 6.30 to 7.00

Prompt: Next: CN1CCN(Cc2ccc(NC(=O)Nc3ccc(-c4cn(C5CCN(S(C)(=O)=O)CC5)c5ncnc(N)c45)cc3F)cc2C(F)(F)F)CC1 [Example I-101]
Completion: > 7.00

Prompt: Moving on to CN1CCC(Oc2ccc(NC(=O)Nc3ccc(-c4cn(C5CC5)c5ncnc(N)c45)cc3F)cc2C(F)(F)F)C(F)C1 (single isomer, unassigned) [Example I-89]
Completion: 6.30 to 7.00

Prompt: Also, Nc1ncnc2c1c(-c1ccc(NC(=O)Nc3ccc(CN4CCNCC4)c(C(F)(F)F)c3)c(F)c1)cn2C1CC1 [Example I-79] please.
Completion: > 7.00
